Provenance of the data: patent US10259808B2

Biological target: RORc ligand binding domain (Homo sapiens, UniProt P51449)
Assay: In vitro RORc ligand binding assay (25-[3H]hydroxycholesterol displacement)
Experimental readout: IC50 (µM)

1. C[C@H]1CC[C@H](c2ccccc2)S(=O)(=O)N1Cc1ccc(C2(C(=O)NC3CCOC3)CCOCC2)cc1F (stereo partly shown): 0.101
2. C[C@H]1CC[C@@H](c2ccccc2)S(=O)(=O)N1Cc1cc(F)c(C2(c3n[nH]c(=O)o3)CCC2)cc1F: 0.151
3. C[C@H]1CC[C@H](c2ccccc2)S(=O)(=O)N1Cc1ccc(C2(C(=O)NCc3cn[nH]c3)CCOCC2)cc1F: 0.0325
4. C[C@H]1CC[C@H](c2ccccc2)S(=O)(=O)N1Cc1cc(F)c(C2(Nc3cnccn3)COC2)cc1F: 0.0022

###

Target: RORc ligand binding domain (Homo sapiens, UniProt P51449)
Sequence (P51449 269-508 limits assumed): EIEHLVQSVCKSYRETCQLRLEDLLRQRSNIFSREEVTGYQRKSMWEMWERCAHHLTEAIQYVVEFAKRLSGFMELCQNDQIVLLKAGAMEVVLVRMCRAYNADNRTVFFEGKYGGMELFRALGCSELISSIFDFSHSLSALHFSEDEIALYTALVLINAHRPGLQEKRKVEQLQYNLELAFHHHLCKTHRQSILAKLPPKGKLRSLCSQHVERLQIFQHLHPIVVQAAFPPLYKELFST
Test: In vitro RORc ligand binding assay (25-[3H]hydroxycholesterol displacement)
Listed here are molecules together with their documented IC50.
Experimental readout: IC50 (nM)

1) C[C@H]1CC[C@H](c2ccccc2)S(=O)(=O)N1Cc1cc(F)c(C2(c3nc(CO)co3)CCOCC2)cc1F: 12.8
2) C[C@H]1CC[C@H](c2ccccc2)S(=O)(=O)N1Cc1cc(F)c(C2(NCC3COC(=O)N3)COC2)cc1F (some centres unmarked): 56.6
3) C[C@H]1CC[C@H](c2ccccc2)S(=O)(=O)N1Cc1ccc(C2(n3cn[nH]c3=O)CCOCC2)cc1F: 113
4) C[C@H]1CC[C@H](c2ccccc2)S(=O)(=O)N1Cc1cc(F)c(C2(c3ncn(CC(N)=O)n3)CCOCC2)cc1F: 103
5) C[C@H]1CC[C@H](c2ccccc2)S(=O)(=O)N1Cc1cc(F)c(C2(C(=O)n3cccn3)CCOCC2)cc1F: 27.3
6) Cc1nnc(C2(c3cc(F)c(CN4[C@@H](C)CC[C@H](c5ccccc5)S4(=O)=O)cc3F)CC2)[nH]1: 40.4
7) C[C@H]1CC[C@H](c2ccccc2)S(=O)(=O)N1Cc1cc(F)c([C@]2(c3n[nH]c(=O)o3)C[C@@H](O)C2)cc1F: 2.1
8) C[C@H]1CC[C@H](c2ccccc2)S(=O)(=O)N1Cc1cc(F)c([C@]2(c3n[nH]c(=O)o3)C[C@](C)(F)C2)cc1F: 3.9
9) C[C@H]1CC[C@H](c2ccccc2)S(=O)(=O)N1Cc1cc(F)c(C2(NCc3ccn(C)n3)CCOCC2)cc1F: 82.6
10) Cc1cc(C(=O)NC2(c3cc(F)c(CN4[C@@H](C)CC[C@H](c5ccccc5)S4(=O)=O)cc3F)CCOCC2)no1: 44
11) C[C@H]1CC[C@H](c2ccccc2)S(=O)(=O)N1Cc1cc(F)c(C2(NCc3ncco3)CCOCC2)cc1F: 3.7
12) C[C@H]1CC[C@H](c2ccccc2)S(=O)(=O)N1Cc1ccc(C2(c3noc(=O)[nH]3)CCOCC2)cc1F: 245
13) C[C@H]1CC[C@H](c2ccccc2)S(=O)(=O)N1Cc1cc(F)c([C@]2(Cn3ncccc3=O)C[C@](C)(O)C2)cc1F (racemic): 170
14) C[C@H]1CC[C@H](c2ccccc2)S(=O)(=O)N1Cc1cc(F)c([C@]2(COc3cnccn3)C[C@](C)(O)C2)cc1F (racemic): 8

###

Target: RORc ligand binding domain (Homo sapiens)
Assay: In vitro RORc ligand binding assay (25-[3H]hydroxycholesterol displacement)
Experimental readout: IC50 (nM)

1) C[C@H]1CC[C@H](c2ccccc2)S(=O)(=O)N1Cc1cc(F)c(C2(Nc3ncccn3)COC2)cc1F: 60.7
2) C[C@H]1CC[C@H](c2ccccc2)S(=O)(=O)N1Cc1cc(F)c(C2(N(C)Cc3cocn3)CCOCC2)cc1F: 8.8
3) C[C@H]1CC[C@H](c2ccccc2)S(=O)(=O)N1Cc1cc(F)c(C2(c3nnc[nH]3)CCOCC2)cc1F: 28.6
4) C[C@H]1CC[C@H](c2ccccc2)S(=O)(=O)N1Cc1cc(F)c([C@]2(c3n[nH]c(=O)o3)C[C@H](CC#N)C2)cc1F: 8.7
5) C[C@H]1CC[C@H](c2ccccc2)S(=O)(=O)N1Cc1cc(F)c([C@]2(c3nn(C)c(=O)o3)C[C@@H](O)C2)cc1F: 17.6
6) C[C@H]1CC[C@H](c2ccccc2)S(=O)(=O)N1Cc1cc(F)c(C2(OCc3nnc[nH]3)CC3(COC3)C2)cc1F: 2.7
7) C[C@H]1CC[C@H](c2ccccc2)S(=O)(=O)N1Cc1ccc(C2(NCc3cc[nH]c(=O)c3)CCOCC2)cc1F: 10.6

###

Biological target: RORc ligand binding domain (Homo sapiens, UniProt P51449)
Experiment: In vitro RORc ligand binding assay (25-[3H]hydroxycholesterol displacement)
Threshold check on IC50: strictly below 30 nM is met; on or above 30 nM is not met.

1) C[C@H]1CC[C@H](c2ccccc2)S(=O)(=O)N1Cc1ccc(C2(C(=O)NC3(C)COC3)CCOCC2)cc1F [Example 9]: not met
2) C[C@H]1CC[C@H](c2ccccc2)S(=O)(=O)N1Cc1cc(F)c([C@]2(NCC3(C)COC3)C[C@](C)(O)C2)cc1F (racemic) [Example 187]: met
3) C[C@H]1CC[C@H](c2ccccc2)S(=O)(=O)N1Cc1cc(F)c([C@]2(c3nn(C)c(=O)o3)C[C@](C)(O)C2)cc1F [Example 151]: met
4) COc1cc([C@]2(c3cc(F)c(CN4[C@@H](C)CC[C@H](c5ccccc5)S4(=O)=O)cc3F)C[C@@](C)(O)C2)on1 [Example 162]: met
5) Cc1cncc(C(=O)NC2(c3cc(F)c(CN4[C@@H](C)CC[C@H](c5ccccc5)S4(=O)=O)cc3F)COC2)n1 [Example 109]: not met
6) C[C@H]1CC[C@H](c2ccccc2)S(=O)(=O)N1Cc1cc(F)c(C2(c3n[nH]c(=O)o3)CC(=O)C2)cc1F [Example 119]: met
7) Cc1[nH]c(=O)oc1[C@]1(c2cc(F)c(CN3[C@@H](C)CC[C@H](c4ccccc4)S3(=O)=O)cc2F)C[C@@](C)(O)C1 [Example 160]: met
8) C[C@H]1CC[C@H](c2ccccc2)S(=O)(=O)N1Cc1cc(F)c(C2(c3c[nH]c(=O)o3)CC(O)(CC3CC3)C2)cc1F (mixture of isomers) [Example 184]: met
9) Cc1cc(NC(=O)C2(c3ccc(CN4[C@@H](C)CC[C@H](c5ccccc5)S4(=O)=O)c(F)c3)CCOCC2)n(C)n1 (stereo in doubt) [Example 14]: not met
10) C[C@H]1CC[C@H](c2ccccc2)S(=O)(=O)N1Cc1ccc(C2(NCc3ccc(=O)[nH]c3)CCOCC2)cc1F [Example 68]: not met
11) C[C@H]1CC[C@H](c2ccccc2)S(=O)(=O)N1Cc1cc(F)c(C2(N3CC(=O)NC3=O)COC2)cc1F [Example 117]: met
12) C[C@H]1CC[C@H](c2ccccc2)S(=O)(=O)N1Cc1cc(F)c([C@]2(c3nn(C)c(=O)o3)C[C@H](O)C2)cc1F [Example 147]: met
13) Cc1nn(C)cc1CNC1(c2cc(F)c(CN3[C@@H](C)CC[C@H](c4ccccc4)S3(=O)=O)cc2F)COC1 [Example 135]: not met

###

Item-by-item account of log10(IC50)
Molecular target: RORc ligand binding domain (Homo sapiens, UniProt P51449)
Assay: In vitro RORc ligand binding assay (25-[3H]hydroxycholesterol displacement)
Where a name gives a salt, the structure may show the parent alone.
Experimental readout: log10(IC50) (log10 of the value in nM)

1. C[C@H]1CC[C@H](c2ccccc2)S(=O)(=O)N1Cc1cc(F)c(C2(NC(=O)c3cocn3)COC2)cc1F: 1.55
2. C[C@H]1CC[C@H](c2ccccc2)S(=O)(=O)N1Cc1ccc(C2(NCc3cocn3)CCOCC2)cc1F: 0.56
3. C[C@H]1CC[C@H](c2ccccc2)S(=O)(=O)N1Cc1cc(F)c([C@]2(c3noc(=O)[nH]3)C[C@@](C)(O)C2)cc1F (racemic): 1.79
4. C[C@H]1CC[C@H](c2ccccc2)S(=O)(=O)N1Cc1ccc(C2(NCc3ncccn3)CCOCC2)cc1F: 0.97
5. C[C@H]1CC[C@H](c2ccccc2)S(=O)(=O)N1Cc1cc(F)c(C2(NCc3ccn[nH]3)CCOCC2)cc1F: 0.46
6. C[C@H]1CC[C@H](c2ccccc2)S(=O)(=O)N1Cc1cc(F)c([C@]2(c3n[nH]c(=O)o3)C[C@H](O)C2)cc1F: 0.26
7. C[C@H]1CC[C@H](c2ccccc2)S(=O)(=O)N1Cc1cc(F)c(C2(C(=O)NCC3COC3)CCOCC2)cc1F: 1.68
8. C[C@H]1CC[C@H](c2ccccc2)S(=O)(=O)N1Cc1cc(F)c([C@]2(CN3C(=O)CNC3=O)C[C@](C)(O)C2)cc1F (racemic): 3.84
9. Cc1nnc(C2(c3ccc(CN4[C@@H](C)CC[C@H](c5ccccc5)S4(=O)=O)c(F)c3)CCOCC2)o1: 2.15
10. C[C@H]1CC[C@H](c2ccccc2)S(=O)(=O)N1Cc1cc(F)c(C2(NC(=O)Cc3ccon3)COC2)cc1F: 1.25
11. CNC(=O)c1nc(CNC(=O)C2(c3ccc(CN4[C@@H](C)CC[C@H](c5ccccc5)S4(=O)=O)c(F)c3)CCOCC2)no1: 0.97
12. C[C@H]1CC[C@H](c2ccccc2)S(=O)(=O)N1Cc1cc(F)c(C2(NCc3ccon3)COC2)cc1F: 0.18
13. C[C@H]1CC[C@H](c2ccccc2)S(=O)(=O)N1Cc1cc(F)c(C2(C(=O)N3CC[C@@H](O)C3)CCOCC2)cc1F: 1.90
14. C[C@H]1CC[C@H](c2ccccc2)S(=O)(=O)N1Cc1cc(F)c([C@]2(c3c[nH]c(=O)[nH]3)C[C@](C)(O)C2)cc1F (racemic): 1.28
15. C[C@H]1CC[C@H](c2ccccc2)S(=O)(=O)N1Cc1cc(F)c(C2(C(=O)n3ccc(N)n3)CCOCC2)cc1F: 1.00
16. CO[C@]1(C)C[C@@](c2n[nH]c(=O)o2)(c2cc(F)c(CN3[C@@H](C)CC[C@H](c4ccccc4)S3(=O)=O)cc2F)C1: 0.87
17. C[C@H]1CC[C@H](c2ccccc2)S(=O)(=O)N1Cc1ccc(C2(NCc3cc[nH]n3)CCOCC2)cc1F: 0.83
18. Cc1ccn(C(=O)C2(c3cc(F)c(CN4[C@@H](C)CC[C@H](c5ccccc5)S4(=O)=O)cc3F)CCOCC2)n1: 1.54
19. C[C@H]1CC[C@H](c2ccccc2)S(=O)(=O)N1Cc1cc(F)c(C2(NCc3cnco3)COC2)cc1F: 1.53
20. C[C@H]1CC[C@H](c2ccccc2)S(=O)(=O)N1Cc1cc(F)c([C@]2(c3n[nH]c(=O)o3)C[C@@](O)(CC#N)C2)cc1F (racemic): 0.73
21. C[C@H]1CC[C@H](c2ccccc2)S(=O)(=O)N1Cc1cc(F)c(C2(C(=O)N3CC[C@H](O)C3)CCOCC2)cc1F: 1.99
22. C[C@H]1CC[C@H](c2ccccc2)S(=O)(=O)N1Cc1ccc(C2(n3cnnc3)CCOCC2)cc1F: 1.94
23. C[C@H]1CC[C@H](c2ccccc2)S(=O)(=O)N1Cc1cc(F)c([C@]2(Cn3cn[nH]c3=O)C[C@](C)(O)C2)cc1F (racemic): 0.79
24. C[C@H]1CC[C@H](c2ccccc2)S(=O)(=O)N1Cc1cc(F)c([C@]2(c3nn(C)c(=O)[nH]3)C[C@@](C)(O)C2)cc1F (racemic): 1.60
25. C=C[C@]1(O)C[C@@](c2c[nH]c(=O)o2)(c2cc(F)c(CN3[C@@H](C)CC[C@H](c4ccccc4)S3(=O)=O)cc2F)C1: 0.79
26. Cc1nc(CNC2(c3ccc(CN4[C@@H](C)CC[C@H](c5ccccc5)S4(=O)=O)c(F)c3)CCOCC2)co1 [Example 78, hydrochloride]: 1.48
